Cited source for all entries: PubChem BioAssay

Assay: DUSP6 inhibitors restoring Erk phosphorylation by chemical complementation, primary imaging in DUSP6-transfected HeLa (AID 609)
Settings: HeLa MKP-3 transfected, phospho-Erk imaging KS statistic; measured here: nuclear pErk red intensity z-score; at 10 µM; stronger effect = higher value; cells stimulated with TPA for 15 min
property.measured: z-score
// keep it numeric: no unit symbol after the value

molecule: COC(=O)c1c(NC(=O)c2nn(C)cc2Cl)sc2c1CCCC2
property.measured: z-score
reported.measurement: 1.29

Ask: So what's the measured z-score for this one? "CCOc1ccc(C2=Nn3c(nnc3-c3ccccn3)SC2)cc1"
Result: 0.587

Ask: Given the molecule CCCC1C2C(=O)N(c3ccccc3OC)C(=O)C2ON1c1ccccc1 (centres undefined) , what is its reported z-score?
Result: 0.149

Ask: May I ask what z-score has been recorded for "Cn1c(=O)c2c(nc(NCc3ccc4c(c3)OCO4)n2Cc2ccccc2F)n(C)c1=O" ?
Result: 0.345

Ask: May I ask what z-score has been recorded for "CCOCc1nc(N)[nH]c(=O)c1Cc1ccc(OC(C)C)cc1" ?
Result: -2.13

Ask: Recorded z-score of "C[C@]12CC[C@@H]3c4ccc(OS(=O)(=O)O)cc4CC[C@H]3[C@@H]1CCC2=O" , please.
Result: -1.13

---

Target: Voltage-gated potassium channel subunit beta-2 (Rattus norvegicus)
Assay: KvBeta enzyme negative modulators, primary screen, biochemical, NADPH fluorescence (AID 622);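 note: slope of raw intensity against log time taken from 70 to 1610 s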
Conditions: recombinant KvBeta, 4-cyanobenzaldehyde reduction, at 10 µM, stronger effect = higher value
fluorescence slope for assorted compounds
Reply with the value as a number alone.

compound: Clc1ccc2[nH]c3c(NCCN4CCOCC4)ncnc3c2c1
fluorescence slope: -0.503
//
compound: O=C1C2ON(c3ccccc3)C(c3ccncc3)C2C(=O)N1c1ccccc1 (stereo unspecified)
fluorescence slope: -0.419
//
compound: O=C(CN1C(=O)c2ccccc2C1=O)NCc1ccccn1
fluorescence slope: -0.417
//
compound: Cc1nnc(C)n1/N=C/c1cccn1C
fluorescence slope: -0.412
//
compound: CC(=O)N=c1sc(S(N)(=O)=O)nn1C
fluorescence slope: -0.454

Ask: # fluorescence slope lookup, item "Cc1nc(NS(=O)(=O)c2ccccc2)sc1NC(=O)OC(C)C"
Result: -0.415

---

Assay: inhibitors of TNFa-induced NFkB p65 translocation, primary screen, imaging, HUVEC, MLSMR starter and 10KST1 sets (AID 438);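 note: compound added about 3h40 before a 20 min TNFalpha stimulation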
Settings: HUVEC TNFa-induced p65 nuclear translocation; measured here: nuclei count (cytotoxicity indicator), at 2.08 µM
Given measured cell count, output criterion met if it is greater than or equal to 600 and criterion not met if not.

Examples from the recorded data:
compound: NS(=O)(=O)c1ccc(C(=O)O)cc1
category.label: criterion met
//
compound: Cc1nc(/N=C(\N)Nc2ccccc2)nc2ccccc12
category.label: criterion not met
//
compound: COc1cc(=O)n2c(-c3ccccc3)csc2n1
category.label: criterion met
//
compound: CC1C[C@@]2(NC(=O)NC2=O)C(C)CN1C (some centres not stated)
category.label: criterion not met
//
compound: Cn1cc(C(=O)NCN2CCCCC2)c2ccccc21
category.label: criterion met

Ask: Test whether the compound "CC1(C)Cc2c(sc(NC(=O)c3ccc(Br)o3)c2C#N)CO1" records cell count of 600 or higher.
Result: criterion not met

Ask: Does "CC(C)(Oc1ccc(CCNC(=O)c2ccc(Cl)cc2)cc1)C(=O)O" have a reported cell count of at least 600?
Result: criterion met

Ask: # bool: cell count of "CCCCCC(=O)N1CC2(CC)CN(C(=O)CCCCC)CC(CC)(C1)C2=O" >= 600
Result: criterion not met

Ask: I'd appreciate it if you could say whether Cn1c(Cl)cnc1C1CC(=O)c2cc(Cl)ccc2O1 (configuration not stated) has cell count at least equal to 600.
Result: criterion met

Ask: Threshold query (cell count >= 600) on "CN(C)CCOc1ccccc1Cc1ccccc1"
Result: criterion not met

Ask: Hi, just wondering whether "O=C(CCN1C(=O)c2ccccc2C1=O)OCN1C(=O)c2ccccc2C1=O" shows cell count of 600 or higher.
Result: criterion not met
